The entries below come with measured protein stability index values attached.
B1: TPD52L1 (parent)
chain: ISKKFGDMSYSIRHSISMPAMRNS

# Variants of: B1
# Assay Procedure: protein stability index of a GFP-peptide fusion (GPS, HEK-293T) (PSI 1-6); higher = more stable;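 further: lentivirally expressed fusions sorted by FACS into six bins by GFP to DsRed ratio, PSI derived from sequencing read proportions per bin multiplied by bin number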
# Stated Conditions: c terminus: a fixed tail appended
// return a plain number; no unit text

ISKKFGDMSYSIRHSISMPAMRNI: 1.81
ISKKFGCMSYSIRHSISMPAMRNS: 1.69
ISKKFGDMSYSIRHSISMPAMRNV: 2.24
ISKKKGDMSYSIRHSISMPAMRNS: 2.44
ISKEFGDMSYSIRHSISMPAMRNS: 2.33
ISKKFGDMSLSIRHSISMPAMRNS: 1.88
ISKKFGYMSYSIRHSISMPAMRNS: 2.31
ISKKFGDMSYSIRHSISMPAMRWS: 2.39
ISKKFGDMSYSLRHSISMPAMRNS: 2.71
ISKKFGDASYSIRHSISMPAMRNS: 2.87

Enquiry: Specify reported protein stability index for the variant shown: ISKWFGDMSYSIRHSISMPAMRNS
Return: 1.76

Enquiry: Specify reported protein stability index for the variant shown: ISKKFGPMSYSIRHSISMPAMRNS
Return: 2.14

Enquiry: Specify reported protein stability index for the variant shown: ISKKFGDMSYSIRHVISMPAMRNS
Return: 1.32
